Tested on: NCI-H522
procedure-details: NCI tumour cell line growth inhibition, 48 h
Calls of active or inactive are those of the source. No stated cut-off is given here; in the data, active = GI50 up to about 1.1 µM and inactive = higher.
Classes used: active, inactive

>>> df
                                   molecule  assigned_label
0  CCCCC1CC(c2ccc(Cl)cc2)=NO1 (stereo unspecified)        inactive
1                    Cc1csc(-n2nc(C)cc2C)n1        inactive
2  C=C1C(=O)CCC1C(=O)O (stereo unspecified)        inactive
3                      O=c1c(=O)c2cscc2c1=O          active
4        N#C/C(C(=O)Nc1ccccc1)=C(/N)N1CCCC1        inactive
5  CSC[C@H](NC(=O)COc1cccc2cnccc12)C(=O)NC(Cc1ccccc1)C(O)C(=O)N1CSC[C@H]1C(=O)NC(C)(C)C (stereo partly specified)        inactive

====

Below: a set of entries, each annotated with reported GI50.
Tested on: OVCAR-3
procedure-details: NCI tumour cell line growth inhibition, 48 h
Activity calls are given as the source filed them. No stated cut-off is given here; in the data, active = GI50 up to about 1.1 µM and inactive = higher.
observable: GI50

>>> print(df.to_string())
                                   molecule   system               result
0  CCOC(=O)c1cc2c(OCc3ccccc3)c(OC)cc3c2c(n1)N(c1ccc(OC)cc1)C(C)C3 (stereo not given)  OVCAR-3   23.2 µM (inactive)
1  Cn1c(=O)c2c([nH]/c(=N/N=C/c3ccccc3C(=O)O)n2C)n(C)c1=O  OVCAR-3  > 100 µM (inactive)
2  CC(=O)O[C@H]1CC[C@@]2(C)C(=CC[C@@H]3[C@@H]2CC[C@]2(C)C(=O)/C(=C\c4ccccc4)C[C@@H]32)C1  OVCAR-3   61.9 µM (inactive)
3  O=C1CC(C(CC(=O)c2ccccc2)c2ccccc2)C(=O)c2ccccc2N1 (stereo not given)  OVCAR-3   28.4 µM (inactive)
4  Cc1ccc(N(C(=O)Nc2ccc(F)c(Cl)c2)C2=NCC(C)S2)cc1 (stereo not given)  OVCAR-3   45.3 µM (inactive)
5  O=C(NC(Nc1ccc(F)c(Cl)c1)(C(F)(F)F)C(F)(F)F)OCc1ccccc1  OVCAR-3   17.3 µM (inactive)
6        O=C(O)c1cc(/C=C/c2cc(O)ccc2O)ccc1O  OVCAR-3   > 10 µM (inactive)
7                               N=C(N)SCCCN  OVCAR-3   9.57 µM (inactive)
8  O=C(CC1C(=O)Nc2ccccc2[S+]1[O-])Nc1ccc(Cl)cc1 (stereo not given)  OVCAR-3  > 100 µM (inactive)
9  Cc1cccc2c1[C@]13OC(C)[C@]4(C)CC5OC(=O)[C@@]1(C)[C@@H]5[C@]34C(=O)O2 (stereo not given in full)  OVCAR-3  > 100 µM (inactive)

====

Below: a set of entries, each annotated with reported GI50.
Tested on: UACC-62
procedure-details: NCI tumour cell line growth inhibition, 48 h
Calls of active or inactive are those of the source. Rule as the data show it: active = GI50 up to about 1.1 µM and inactive = higher.
observable: GI50

>>> print(df.to_string())
                                    compound   system               result
 0  C[C@]12CCCC(=O)C1(O)C[C@H](C(=O)O)CC2 (stereo partly specified)  UACC-62  > 100 µM (inactive)
 1  CC#CC(O)(C(=O)OC1CCCN(C)C1)C1=CC=CCC1 (stereo unspecified)  UACC-62  > 100 µM (inactive)
 2  Cn1c2c(c3ccccc31)CC(=S)N1CCCC(CC2O)C1 (stereo unspecified)  UACC-62   91.2 µM (inactive)
 3  O=C(CC(=O)N1N=C(n2ccc3ccccc32)CC1c1ccccc1)Nc1ccc(Cl)cc1 (stereo unspecified)  UACC-62  > 100 µM (inactive)
 4  C=CCC(C(=O)O)c1ccccc1 (stereo unspecified)  UACC-62  > 100 µM (inactive)
 5  CC1=NN(c2nc(N)nc(C/C(N)=N/O)n2)C(C)(C)C1  UACC-62  > 100 µM (inactive)
 6  Cc1cc(NS(=O)(=O)c2ccc(/N=N/c3c(O)c(C(=O)O)cc4ccccc34)cc2)nc(C)n1  UACC-62  > 100 µM (inactive)
 7  N=C1C=CC(=C(c2ccc(N)cc2)c2ccc(N)cc2)C=C1  UACC-62   3.87 µM (inactive)
 8     CCOC(=O)/C=C/C(Br)=C(Br)/C=C/C(=O)OCC  UACC-62   15.4 µM (inactive)
 9  Cc1nc(N)sc1/N=N/c1cc(Cl)c([N+](=O)[O-])cc1Cl  UACC-62   16.4 µM (inactive)
10  O=C(N(C1=CCCC1)N(c1ccccc1)c1ccccc1)C(F)(F)F  UACC-62   25.8 µM (inactive)
